# maps each entry to its Population Mitochondria Different-Phenotype (%)
Tested on: U2OS
Test: Multiplex assay against U2OS
Type: toxicity, cell-based
Conditions: human, 48 h, 10 µM, compound concentration 10 uM, replicate 1
readoutKind: Population Mitochondria Different-Phenotype (%)

CN1CCN2c3ccccc3Cc3ccccc3C2C1.Cl (stereo not drawn) [MIANSERIN HYDROCHLORIDE] ... 2
COCCCN1CCC(NC(=O)c2cc(Cl)c(N)c3c2OCC3)CC1 [PRUCALOPRIDE] ... 2
COC(c1ccccc1)(c1ccccc1)[C@H](Oc1nc(C)cc(C)n1)C(=O)O [AMBRISENTAN] ... 2

----------
System: HEK-293T
Test: Multiplex assay against HEK293T
Assay type: toxicity, cell-based
Conditions: human, 24 h, 1 µM, compound concentration 1 uM, replicate 1
readoutKind: Population Mitotic Cells (%)

Cn1cc(C(=O)OCC2CCN(CCNS(C)(=O)=O)CC2)c2ccccc21 ... 70
Nc1nc(-c2ccco2)c2cnn(Cc3ccccc3F)c2n1 ... 69
Cc1c(Cc2ccc3ccccc3n2)c2cc(F)ccc2n1CC(=O)O ... 68
COc1cc(OC2CCN(C(C)=O)CC2)ccc1C(=O)N1CCC(N2C(=O)OCc3ccccc32)CC1 ... 71
Nc1nc(CC(=O)Nc2ccc(CCNC[C@H](O)c3ccccc3)cc2)cs1 ... 71
